Give measured Fold decrease in Gs signaling activity for each item. Keep answers brief.
- study_target: GPR174 (Homo sapiens, UniProt Q9BXC1)
- Sequence (Q9BXC1 whole entry): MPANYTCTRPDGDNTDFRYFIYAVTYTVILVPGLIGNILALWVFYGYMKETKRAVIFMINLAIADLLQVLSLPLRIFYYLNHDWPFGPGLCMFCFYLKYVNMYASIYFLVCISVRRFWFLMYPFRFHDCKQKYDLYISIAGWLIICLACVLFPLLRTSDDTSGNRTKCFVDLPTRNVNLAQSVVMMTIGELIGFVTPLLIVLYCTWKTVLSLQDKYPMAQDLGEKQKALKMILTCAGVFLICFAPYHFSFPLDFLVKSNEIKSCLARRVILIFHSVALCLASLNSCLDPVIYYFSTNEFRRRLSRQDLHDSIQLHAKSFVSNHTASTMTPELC
- assay_procedure: CRE-Luc reporter Gs signaling assay with GPR174
- Assay type: cell-based
- Parameters: host or cells: HEK293 or CHO cell lines (ATCC)
- reported_conditions: pCRE-Luc reporter
Answers are plain numbers, in fold.

1. O=C1CCCC2=C1C(c1ccc(N3CCCC3=O)cc1)C1=C(N2)c2ccccc2C1=O (stereo not shown) ... 5.1
2. O=C1CCCC2=C1C(c1ccc(OC(F)F)cc1)C1=C(N2)c2ccccc2C1=O (stereo not shown) ... 8.1
3. O=C1CCCC2=C1C(c1ccc(Cl)cc1)C1=C(N2)c2ccccc2C1=O (stereo not shown) ... 7.8

IN: Data request, read-out Fold decrease in Gs signaling activity, for CCC(=O)N1CCN(c2cc(N3CCCCC3)c(F)cc2[N+](=O)[O-])CC1
OUT: 2.1

###

- System: human PBMCs
- assay_procedure: Th1 cytokines in supernatants of stimulated human PBMC, GPR174 inhibitor with adenosine pathway inhibitors (Examples 15, 18-22)
- Format: cell-based
- reported_conditions: donor 7; no ZM; 0.3 μM (compound 20: 3 μM)
- Procedure: Human PBMCs, obtained from a human volunteer donor, were dispensed at density of 1×10^6 cells/well in a 96-well flat-bottom plate and were stimulated in triplicate with 1 μg/mL anti-CD3 antibody (UCHT1) and 0.1 μg/mL anti-CD28 antibody (CD28.2) in the presence of: Supernatants from these cells were collected at 24 hours post-stimulation and the levels of IFN-γ were determined by ELISA assay. […]
Marks after values point to notes of the source that are not given here.
quantity_kind: TNF, ratio relative to vehicle control

Give one value of TNF, ratio relative to vehicle control per listed molecule.
1. O=[N+]([O-])c1cc(F)c(N2CCCCC2)cc1N1CCN(S(=O)(=O)c2ccccc2)CC1 [compound 11]
2. CC1CCN(c2cc(N3CCN(S(=O)(=O)c4ccccc4)CC3)c([N+](=O)[O-])cc2F)CC1 [compound 10]
3. Cc1ccccc1Nc1nnc(-c2ccc(C)c(S(N)(=O)=O)c2)c2ccccc12 [compound 20]
4. O=C(c1ccccc1)N1CCN(c2cc(N3CCCCC3)c(F)cc2[N+](=O)[O-])CC1 [compound 6]

OUT:
1: 1.7*; 2: 2.2*; 3: 1.4*; 4: 2.1*

###

- Test system: human PBMCs
- assay_procedure: Th1 cytokines in supernatants of stimulated human PBMC, GPR174 inhibitor with adenosine pathway inhibitors (Examples 15, 18-22)
- Type: cell-based
- reported_conditions: donor 7; no ZM; 1 μM (compound 20: 10 μM)
- Description: Human PBMCs, obtained from a human volunteer donor, were dispensed at density of 1×10^6 cells/well in a 96-well flat-bottom plate and were stimulated in triplicate with 1 μg/mL anti-CD3 antibody (UCHT1) and 0.1 μg/mL anti-CD28 antibody (CD28.2) in the presence of: Supernatants from these cells were collected at 24 hours post-stimulation and the levels of IFN-γ were determined by ELISA assay. […]
Marks after values point to notes of the source that are not given here.
Give measured GM-CSF, ratio relative to vehicle control for each item. Keep answers brief.

Guide cases for GM-CSF, ratio relative to vehicle control, answers given:
1. O=[N+]([O-])c1cc(F)c(N2CCCCC2)cc1N1CCN(S(=O)(=O)c2ccccc2)CC1 [compound 11] ... 2.4*
2. Cc1ccccc1Nc1nnc(-c2ccc(C)c(S(N)(=O)=O)c2)c2ccccc12 [compound 20] ... 2.3*
3. O=C(c1ccccc1)N1CCN(c2cc(N3CCCCC3)c(F)cc2[N+](=O)[O-])CC1 [compound 6] ... 2.9*

# input for lookup
IN: Give the reported GM-CSF, ratio relative to vehicle control for CC1CCN(c2cc(N3CCN(S(=O)(=O)c4ccccc4)CC3)c([N+](=O)[O-])cc2F)CC1 [compound 10] (system: human PBMCs).
OUT: 3.1*

Source listed as patent US20200345725A1.
